# System: MDR1-MDCK cell monolayers
# METHOD NOTES: MDCK-MDR1 permeability assay (BBB penetration potential)
# Type: in vitro ADME
# CONDITION CONTEXT: dog, MDCK-MDR1, 120 min, 5 μM, pH 7.4
ENDPOINT: MDCK-MDR1: % Recov B-A (%)

# COMPOUND, RESULT UNIT, MEASURED RESULT
data = [
    ("Cc1cc(-c2ccc(-c3ccc(O[C@@H]4C[C@H]5CCC[C@H](N5)[C@@H]4F)nn3)c(O)c2)co1 (single isomer, unassigned) [98-ENT1]", "%", 47),
    ("Cn1ccc(-c2ccc(-c3ccc(O[C@H]4C[C@@H]5CCC[C@@H](N5)[C@H]4F)nn3)c(O)c2)n1 (single isomer, unassigned) [68-ENT2]", "%", 89),
    ("Cc1cc(-c2ccc(-c3ccc(O[C@H]4C[C@@H]5CCC[C@@H](N5)[C@H]4F)nn3)c(O)c2)co1 (single isomer, unassigned) [98-ENT2]", "%", 45),
]

----------
# Tested on: MDR1
# METHOD NOTES: MDCK-MDR1 permeability assay (BBB penetration potential)
# Assay type: in vitro ADME
# CONDITION CONTEXT: dog, MDCK-MDR1, pH 7.4, MDCK-MDR1: Papp B-A
Below, each of the molecules is paired with its reported Papp B→A at 120 min, 5 μM value.

# MOLECULE, Papp B→A at 120 min, 5 μM
measured = [
    ("Oc1cc(-n2ccc(F)n2)ccc1-c1ccc(O[C@H]2C[C@@H]3CCC[C@@H](N3)[C@H]2F)nn1 (single isomer, unassigned)", "12 ×10⁻⁶ cm/s"),
    ("Oc1cc(-c2cn[nH]c2)c(F)cc1-c1ccc(O[C@H]2C[C@@H]3CCC[C@@H](N3)[C@H]2F)nn1 (single isomer, unassigned)", "36 ×10⁻⁶ cm/s"),
    ("Cn1ccc(-c2ccc(-c3ccc(O[C@H]4C[C@@H]5CCC[C@@H](N5)[C@H]4F)nn3)c(O)c2)cc1=O (single isomer, unassigned)", "61.9 ×10⁻⁶ cm/s"),
    ("Oc1cc(-c2nnco2)c(F)cc1-c1ccc(O[C@@H]2C[C@H]3CCC[C@H](N3)[C@@H]2F)nn1 (single isomer, unassigned)", "54.8 ×10⁻⁶ cm/s"),
    ("Cn1ccc2cc(O)c(-c3ccc(O[C@H]4C[C@@H]5CC[C@@H](N5)[C@H]4F)nn3)cc2c1=O (single isomer, unassigned)", "52.8 ×10⁻⁶ cm/s"),
    ("Cn1cc(-c2ccc(-c3ccc(O[C@H]4C[C@]5(C)CC[C@@](C)(N5)[C@H]4F)nn3)c(O)c2)cn1 (single isomer, unassigned)", "27.9 ×10⁻⁶ cm/s"),
]

----------
# Test system: MDR1-MDCK cell monolayers
# METHOD NOTES: MDCK-MDR1 permeability assay (BBB penetration potential)
# Format: in vitro ADME
# CONDITION CONTEXT: dog, MDCK-MDR1, 120 min, 5 μM, pH 7.4
ENDPOINT: MDCK-MDR1: % Recov A-B (%)

# COMPOUND, MEASURED RESULT
rows = [
    ("Cn1c(=O)oc2cc(-c3ccc(O[C@H]4C[C@@H]5CCC[C@@H](N5)[C@H]4F)nn3)c(O)cc21 (single isomer, unassigned)", 87),
    ("Oc1cc(-c2ccn3cnnc3c2)ccc1-c1ccc(O[C@H]2C[C@@H]3CCC[C@@H](N3)[C@H]2F)nn1 (single isomer, unassigned)", 75),
    ("Cn1cc(-c2cc(O)c(-c3ccc(O[C@@H]4C[C@H]5CCC[C@H](N5)[C@@H]4F)nn3)c(F)c2)cn1 (single isomer, unassigned)", 52),
    ("Cc1cc(-c2ccc(-c3ccc(O[C@@H]4C[C@H]5CCC[C@H](N5)[C@@H]4F)nn3)c(O)c2)cnn1 (single isomer, unassigned)", 103),
    ("Oc1cc(-c2cn[nH]c2)ccc1-c1ccc(O[C@H]2C[C@@H]3CCC[C@@H](N3)[C@H]2F)nn1 (single isomer, unassigned)", 83),
    ("O=c1cc(-c2cc(O)c(-c3ccc(O[C@H]4C[C@@H]5CCC[C@@H](N5)[C@H]4F)nn3)cc2F)cc[nH]1 (single isomer, unassigned)", 77),
    ("Oc1cc(-n2ccnc2)ccc1-c1ccc(O[C@@H]2C[C@H]3CC(F)(F)[C@@H](C2)N3)nn1 (single isomer, unassigned)", 90),
    ("C[C@]12CC[C@](C)(N1)[C@H](F)[C@H](Oc1ccc(-c3ccc(-n4cccn4)cc3O)nn1)C2 (single isomer, unassigned)", 67),
    ("Oc1cc(-c2nnco2)ccc1-c1ccc(O[C@H]2C[C@@H]3CCC[C@@H](N3)[C@H]2F)nn1 (single isomer, unassigned)", 78),
    ("Cn1cc(-c2ccc(-c3ccc(O[C@H]4C[C@]5(C)CCC[C@@](C)(N5)[C@H]4F)nn3)c(O)c2)cn1 (single isomer, unassigned)", 73),
    ("Cn1cc(-c2ccc(-c3ccc(O[C@H]4C[C@@H]5COC[C@@H](N5)[C@H]4F)nn3)c(O)c2)cn1 (single isomer, unassigned)", 86),
    ("C[C@@]12CCC[C@@](C)(N1)[C@@H](F)[C@@H](Oc1ccc(-c3ccc(-c4cn[nH]c4)cc3O)nn1)C2 (single isomer, unassigned)", 78),
    ("Oc1cc(-c2cn[nH]c2)ccc1-c1ccc(O[C@H]2C[C@@H]3COC[C@@H](N3)[C@H]2F)nn1 (single isomer, unassigned)", 87),
    ("Oc1cc(-c2ccn3ccnc3c2)ccc1-c1ccc(O[C@@H]2C[C@H]3CCC[C@H](N3)[C@@H]2F)nn1 (single isomer, unassigned)", 48),
    ("O=c1cc(-c2ccc(-c3ccc(O[C@@H]4C[C@H]5CCC[C@H](N5)[C@@H]4F)nn3)c(O)c2)ccn1CF (single isomer, unassigned)", 102),
    ("Cc1cncc(-c2ccc(-c3ccc(O[C@@H]4C[C@H]5CCC[C@H](N5)[C@@H]4F)nn3)c(O)c2)n1 (single isomer, unassigned)", 89),
    ("Cn1cnc(-c2ccc(-c3ccc(O[C@@H]4C[C@H]5CCC[C@H](N5)[C@@H]4F)nn3)c(O)c2)cc1=O (single isomer, unassigned)", 86),
    ("Oc1cc(-c2cn[nH]c2)ccc1-c1ccc(O[C@@H]2C[C@H]3CC[C@H](N3)[C@H]2F)nn1 (single isomer, unassigned)", 83),
    ("Oc1cc(-c2cn[nH]c2)ccc1-c1ccc(O[C@H]2C[C@@H]3CC(F)(F)[C@H](C2)N3)nn1 (single isomer, unassigned)", 70),
    ("Cc1cc(-c2ccc(-c3ccc(O[C@H]4C[C@@H]5CCC[C@@H](N5)[C@H]4F)nn3)c(O)c2)co1 (single isomer, unassigned)", 9),
    ("C[C@@]12CC[C@@](C)(N1)[C@@H](F)[C@@H](Oc1ccc(-c3ccc(-n4cccn4)cc3O)nn1)C2 (single isomer, unassigned)", 60),
    ("Cc1cc(-c2ccc(-c3ccc(O[C@H]4C[C@@H]5CCC[C@@H](N5)[C@H]4F)nn3)c(O)c2)ccn1 (single isomer, unassigned)", 51),
    ("Cc1cc(-c2ccc(-c3ccc(O[C@@H]4C[C@H]5CCC[C@H](N5)[C@@H]4F)nn3)c(O)c2)ccn1 (single isomer, unassigned)", 51),
]

----------
# Test system: MDR1-MDCK cell monolayers
# METHOD NOTES: MDCK-MDR1 permeability assay (BBB penetration potential)
# Type: in vitro ADME
# CONDITION CONTEXT: dog, MDCK-MDR1, 120 min, 5 μM, pH 7.4
ENDPOINT: MDCK-MDR1: % Recov B-A (%)

# MOLECULE, TEST TARGET, MEASURED RESULT
measured = [
    ("Oc1cc(-c2nnco2)ccc1-c1ccc(O[C@H]2C[C@@H]3CC[C@@H](N3)[C@H]2F)nn1 (single isomer, unassigned) [140-ENT1]", "MDR1-MDCK cell monolayers", 95),
    ("Cn1cc(-c2ccc(-c3ccc(O[C@H]4C[C@]5(C)CC[C@@](C)(N5)[C@H]4F)nn3)c(O)c2)cn1 (single isomer, unassigned) [150-ENT1]", "MDR1-MDCK cell monolayers", 85),
    ("Cn1cc(-c2ccc(-c3ccc(O[C@H]4C[C@H]5CCC[C@H](N5)[C@@H]4F)nn3)c(O)c2)cn1 (single isomer, unassigned) [121-ENT1]", "MDR1-MDCK cell monolayers", 73),
    ("Oc1cc(-c2cn[nH]c2)c(F)cc1-c1ccc(O[C@H]2C[C@@H]3CCC[C@@H](N3)[C@H]2F)nn1 (single isomer, unassigned) [56-ENT2]", "MDR1-MDCK cell monolayers", 79),
    ("Cn1ccc(-c2ccc(-c3ccc(O[C@H]4C[C@]5(C)CCC[C@@](C)(N5)[C@H]4F)nn3)c(O)c2)cc1=O (single isomer, unassigned) [149-ENT1]", "MDR1-MDCK cell monolayers", 79),
    ("Oc1cc(-c2cn[nH]c2)c(F)cc1-c1ccc(O[C@@H]2C[C@H]3CCC[C@H](N3)[C@@H]2F)nn1 (single isomer, unassigned) [56-ENT1]", "MDR1-MDCK cell monolayers", 74),
    ("Cc1nc(-c2ccc(-c3ccc(O[C@H]4C[C@@H]5CCC[C@@H](N5)[C@H]4F)nn3)c(O)c2)co1 (single isomer, unassigned) [92-ENT2]", "MDR1-MDCK cell monolayers", 89),
    ("Cn1cc(-c2ccc(-c3ccc(O[C@H]4C[C@]5(C)CCC[C@@](C)(N5)[C@H]4F)nn3)c(O)c2)cn1 (single isomer, unassigned) [154-ENT1]", "MDR1-MDCK cell monolayers", 87),
    ("O=c1cc(-c2cc(O)c(-c3ccc(O[C@H]4C[C@@H]5CCC[C@@H](N5)[C@H]4F)nn3)cc2F)cc[nH]1 (single isomer, unassigned) [57-ENT2]", "MDR1-MDCK cell monolayers", 87),
    ("Oc1cc(-c2cn[nH]c2)ccc1-c1ccc(O[C@H]2C[C@@H]3CCC[C@@H](N3)[C@H]2F)nn1 (single isomer, unassigned) [40-ENT1]", "MDR1-MDCK cell monolayers", 85),
    ("Cn1ccc(-c2ccc(-c3ccc(O[C@@H]4C[C@H]5CCC[C@H](N5)[C@@H]4F)nn3)c(O)c2)n1 (single isomer, unassigned) [68-ENT1]", "MDR1-MDCK cell monolayers", 79),
    ("Cc1cc(-c2ccc(-c3ccc(O[C@H]4C[C@@H]5CCC[C@@H](N5)[C@H]4F)nn3)c(O)c2)cs1 (single isomer, unassigned) [101-ENT2]", "MDR1-MDCK cell monolayers", 53),
]
